target: human A2B receptors (Homo sapiens (Human), UniProt P29275); assay: A2B antagonism in cAMP cell-based assay (LANCE cAMP, HEK293); conditions: HEK293 cells expressing human A2B receptor
Sequence (P29275 whole entry): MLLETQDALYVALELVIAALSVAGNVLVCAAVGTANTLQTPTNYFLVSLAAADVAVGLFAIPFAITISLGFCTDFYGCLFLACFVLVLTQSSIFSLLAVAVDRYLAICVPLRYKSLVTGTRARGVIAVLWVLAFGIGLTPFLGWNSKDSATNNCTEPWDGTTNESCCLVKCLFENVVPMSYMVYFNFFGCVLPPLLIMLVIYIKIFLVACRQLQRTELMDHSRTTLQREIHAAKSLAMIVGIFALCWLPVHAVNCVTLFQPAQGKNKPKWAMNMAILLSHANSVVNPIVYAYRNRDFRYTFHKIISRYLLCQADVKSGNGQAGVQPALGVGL
pIC50: −log10 of the molar value.

{"columns": ["MOLECULE", "pIC50"],
 "data": [
  ["COc1cc(F)cc2c1nc(N)n1nc(C3CC(C)CN(c4cnn(C(C)C(C)O)c4C)C3)nc21 (single isomer, unassigned) [Example 223]", 7.34],
  ["COc1cc2nc(N)n3nc(C4CC(C)CN(c5cnn(CC(C)(C)O)c5C)C4)nc3c2cc1F (single isomer, unassigned) [Example 274]", 7.15],
  ["CC1CCC(c2nc3c4cc(F)cc(F)c4nc(N)n3n2)CN1c1cnn(CC(C)(CO)CO)c1 (single isomer, unassigned) [Example 260]", 8.00],
  ["COc1cc2nc(N)n3nc(C4CCC(C)N(c5cnn(C(C)C(C)O)c5)C4)nc3c2cc1F (single isomer, unassigned) [Example 236]", 8.29],
  ["COc1cc2nc(N)n3nc(C4CCC(C)N(c5cnn(CC(C)(C)N)c5)C4)nc3c2cc1F (single isomer, unassigned) [Example 262]", 7.62],
  ["CC1CCC(c2nc3c4cc(F)cc(F)c4nc(N)n3n2)CN1c1cnn(CC(C)(O)CO)c1 (single isomer, unassigned) [Example 256]", 5.41],
  ["COc1cc2nc(N)n3nc(C4CCC(C)N(c5cnn(C(C)C(C)O)c5)C4)nc3c2cc1F (single isomer, unassigned) [Example 237]", 8.06],
  ["COc1cc2nc(N)n3nc([C@@H]4CCCN(c5cnn(C(C)C(C)O)c5)C4)nc3c2cc1F (single isomer, unassigned) [Example 200]", 6.99],
  ["CC1CC(c2nc3c4cc(F)cc(F)c4nc(N)n3n2)CN(c2cnn(C(C)(C)CO)c2)C1 (single isomer, unassigned) [Example 179]", 6.47],
  ["COc1cc2nc(N)n3nc(C4CCC(C)N(c5cnn(CC6(O)CC6)c5)C4)nc3c2cc1F (single isomer, unassigned) [Example 272]", 5.24],
  ["CC(C)(O)Cn1cc(N2CCC[C@@H](c3nc4c5cc(F)c(OC(F)F)cc5nc(N)n4n3)C2)cn1", 6.14],
  ["COc1cc(F)cc2c1nc(N)n1nc(C3CCC(C)N(c4cnn(C(C)(C)C(C)O)c4)C3)nc21 (single isomer, unassigned) [Example 268]", 8.33]
]}

---

molecular target: human A2b adenosine receptor (Homo sapiens (Human), UniProt P29275)
Note that class boundaries on IC50 are 0 = under 80 nM, 1 = from 80 nM up to 200 nM, 2 = 200 nM and over

{"columns": ["COMPOUND", "CATEGORY"],
 "data": [
  ["COc1cc(F)cc2c1nc(N)n1nc([C@@H]3CCCN(c4cnn(CC(C)(C)O)c4)C3)nc21", 0],
  ["COc1cc(F)cc2c1nc(N)n1nc([C@H]3CC[C@@H](C)N(c4cn(CC(C)(C)O)nc4C)C3)nc21 (single isomer, unassigned)", 0],
  ["COc1cc(F)cc2c1nc(N)n1nc([C@@H]3CCCN(c4ncn(CC(C)(C)O)n4)C3)nc21", 1],
  ["COc1ccc(N2CCC[C@@H](c3nc4c5cc(F)c(OC)cc5nc(N)n4n3)C2)cn1", 0],
  ["COc1cc2nc(N)n3nc([C@H]4CN(c5cn(CC(C)(C)O)nc5C)CCO4)nc3c2cc1F", 2],
  ["COc1cc2nc(N)n3nc([C@@H]4CCCN(c5cnn(CC(C)(C)O)c5C)C4)nc3c2cc1F", 1],
  ["COc1cc(F)cc2c1nc(N)n1nc([C@@H]3CCCN(c4cn(C(C)C(C)(C)O)nc4C)C3)nc21 (single isomer, unassigned)", 1],
  ["COc1cc2nc(N)n3nc(C4CN(c5cn(CC(C)(C)O)nc5C)CCS4(=O)=O)nc3c2cc1F (single isomer, unassigned) [Example 142]", 2],
  ["COc1cc2nc(N)n3nc(C4CCC(C)N(c5cnn(C6CCCC6O)c5)C4)nc3c2cc1F (single isomer, unassigned)", 0],
  ["COc1cc2nc(N)n3nc([C@@H]4CCCN(c5ncn(C(C)C(C)(C)O)n5)C4)nc3c2cc1F (single isomer, unassigned)", 2],
  ["COc1cc2nc(N)n3nc([C@@H]4CCCN(c5cnn(C6CCOCC6)c5C)C4)nc3c2cc1F", 2],
  ["COc1cc2nc(N)n3nc([C@@H]4CCCN(c5cnn(C)c5)C4)nc3c2cc1F", 0],
  ["COc1cc2nc(N)n3nc([C@H]4CC[C@@H](C)N(c5cnn(CC6(O)CCC6)c5C)C4)nc3c2cc1F (single isomer, unassigned)", 2],
  ["COc1cccc2c1nc(N)n1nc([C@@H]3CCC[C@](O)(c4cnn(CC(C)(C)O)c4)C3)nc21 (single isomer, unassigned)", 1]
]}

---

biological target: human A2A receptors (Homo sapiens (Human)); test: A2A antagonism in cAMP cell-based assay (LANCE cAMP, HEK293); conditions: HEK293 cells expressing human A2A receptor
pIC50: −log10 of the molar value.
QUANTITY_KIND: pIC50

{"columns": ["COMPOUND", "QUANTITATIVE_READOUT"],
 "data": [
  ["CC(O)C(C)n1cc(N2CC(c3nc4c5cc(F)cc(F)c5nc(N)n4n3)CCC2C)cn1 (single isomer, unassigned) [Example 235]", 6.36],
  ["COc1cc2nc(N)n3nc(C4CCC(C)N(c5cnn(CC(C)(O)CO)c5)C4)nc3c2cc1F (single isomer, unassigned) [Example 253]", 6.91],
  ["COc1cc2nc(N)n3nc(C4CC(C)CN(c5cn(C(C)(C)CO)nc5C)C4)nc3c2cc1F (racemic) [Example 155]", 7.62]
]}

---

target: human A2B receptors (Homo sapiens (Human), UniProt P29275); assay: A2B antagonism in cAMP cell-based assay (LANCE cAMP, HEK293); conditions: HEK293 cells expressing human A2B receptor
QUANTITY_KIND: IC50 (nM)

{"columns": ["COMPOUND", "MEASURE_UNIT", "QUANTITATIVE_READOUT"],
 "data": [
  ["COc1cc(F)cc2c1nc(N)n1nc(C3CCC(C)N(c4cnn(C(C)(C)C(C)O)c4)C3)nc21 (single isomer, unassigned) [Example 269]", "nM", 6.4],
  ["COc1cc2nc(N)n3nc(C4CCC(C)N(c5cnn(CC(C)(O)CO)c5)C4)nc3c2cc1F (single isomer, unassigned) [Example 255]", "nM", 28.8],
  ["Cc1c(N2CC(C)CC(c3nc4c5cc(F)cc(F)c5nc(N)n4n3)C2)cnn1C(C)C(C)O (single isomer, unassigned) [Example 217]", "nM", 161],
  ["COc1cc2nc(N)n3nc([C@@H]4CCCN(c5cnn(CCC(C)(C)O)c5)C4)nc3c2cc1F [Example 152]", "nM", 371]
]}

---

# pIC50 listing for each entry below
Target: human A2A receptors (Homo sapiens (Human), UniProt P29274)
Sequence (P29274 whole entry): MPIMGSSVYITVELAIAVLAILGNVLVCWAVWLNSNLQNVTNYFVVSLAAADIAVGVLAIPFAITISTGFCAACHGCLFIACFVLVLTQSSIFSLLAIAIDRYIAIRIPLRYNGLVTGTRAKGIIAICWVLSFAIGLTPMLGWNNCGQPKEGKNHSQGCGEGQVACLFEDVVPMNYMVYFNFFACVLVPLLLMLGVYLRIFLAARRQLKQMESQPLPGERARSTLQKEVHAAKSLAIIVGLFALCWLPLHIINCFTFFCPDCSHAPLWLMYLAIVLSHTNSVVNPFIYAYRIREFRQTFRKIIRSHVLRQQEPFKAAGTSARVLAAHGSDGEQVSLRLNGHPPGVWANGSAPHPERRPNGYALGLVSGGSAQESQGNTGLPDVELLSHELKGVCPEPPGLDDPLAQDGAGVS
Assay: A2A antagonism in cAMP cell-based assay (LANCE cAMP, HEK293)
Details: HEK293 cells expressing human A2A receptor
Description: Measurement of A2A and A2B Antagonism in cAMP Cell-Based Assay The ability of compounds to antagonize human A2A and A2B adenosine receptors was determined using a kit to measure changes in intracellular cyclic AMP levels (LANCE cAMP 384 Kit, Perkin Elmer, Cat. No. AD0264). […]
pIC50: −log10 of the molar value.

{"columns": ["MOLECULE", "EXPERIMENTAL_SYSTEM", "pIC50"],
 "data": [
  ["CC(C)(O)Cn1cc(N2CCC[C@@H](c3nc4c5cc(F)c(OC(F)F)cc5nc(N)n4n3)C2)cn1 [Example 153]", "human A2A receptors (Homo sapiens (Human), UniProt P29274)", 8.13],
  ["COc1cc2nc(N)n3nc([C@H]4C[C@@H](C)CN(c5cn([C@H](C)[C@@H](C)O)nc5C)C4)nc3c2cc1F (single isomer, unassigned) [Example 210]", "human A2A receptors (Homo sapiens (Human), UniProt P29274)", 7.79],
  ["COc1cc2nc(N)n3nc(C4CC(C)CN(c5cnn(CC(C)(C)O)c5C)C4)nc3c2cc1F (single isomer, unassigned) [Example 275]", "human A2A receptors (Homo sapiens (Human), UniProt P29274)", 7.81]
]}

---

target: human A2B receptors (Homo sapiens (Human), UniProt P29275); assay: A2B antagonism in cAMP cell-based assay (LANCE cAMP, HEK293); settings: HEK293 cells expressing human A2B receptor
# IC50 listing for each entry below

{"columns": ["MOLECULE", "MEASURE_UNIT", "COMPARATOR", "IC50"],
 "data": [
  ["COc1cc2nc(N)n3nc([C@@H]4C[C@H](C)CN(c5cn([C@@H](C)[C@H](C)O)nc5C)C4)nc3c2cc1F (single isomer, unassigned) [Example 208]", "nM", "=", 2800],
  ["CC1CC(c2nc3c4cc(F)cc(F)c4nc(N)n3n2)CN(c2cnn(CC(C)(C)O)c2)C1 (single isomer, unassigned) [Example 163]", "nM", "=", 5310],
  ["COc1cc(F)cc2c1nc(N)n1nc(C3CCC(C)N(c4cnn(C(C)(C)C(C)O)c4)C3)nc21 (single isomer, unassigned) [Example 271]", "nM", "=", 242],
  ["Cc1nn(C(C)C(C)O)cc1N1CC(C)CC(c2nc3c4cc(F)cc(F)c4nc(N)n3n2)C1 (single isomer, unassigned) [Example 213]", "nM", ">", 10000]
]}
